test: Volume of distribution in Sprague-Dawley rat at 5 mg/kg, iv measured upto 48 hrs by LC-MS/MS analysis; assay type: ADME, organism-based; conditions: in vivo
ENDPOINT_LABEL: Vd (L/kg)
Write the value in L/kg as a bare number.

Could you tell me which Vd is on file for `O=C(Nc1ccc(Oc2ccnc(NC(=O)N3CC(O)C3)c2)c(F)c1)c1cn(-c2cccnc2)nn1` ? 0.301

---

test system: BaF3; assay: Antiproliferative activity against mouse BaF3 cells harbouring TEL-VEGFR2 assessed as inhibition of cell growth measured after 72 hrs by Celltiter-glo luminescent cell viability assay; type: functional, cell-based; conditions: BaF3, 72 h
This section presents compounds with their documented IC50 values.
Use nM as the unit, but write only the number.

// below: answered compounds
> print(dat)
                                  structure  measured.number
1  COc1cc2nccc(Oc3ccc(NC(=O)N/N=C/c4cn(-c5ccccc5OC)nn4)cc3)c2cc1OC             7700
2  O=C(Nc1ccc(Oc2ccnc(NC(=O)N3CCOCC3)c2)c(F)c1)c1cn(-c2ccc(F)c(Cl)c2)nn1             2260

Provide value of IC50 for this record tested with BaF3: `O=C(Nc1ccc(Oc2ccnc(NC(=O)N3CC(O)C3)c2)c(F)c1)c1cn(-c2ccc(F)c(Cl)c2Cl)nn1` 440

Quick one: `Cc1cc(-n2cc(C(=O)Nc3ccc(Oc4ccnc(NC(=O)N5CC(O)C5)c4)c(F)c3)nn2)ccc1F` 910

meta.source: ChEMBL document CHEMBL6074715
